# System: GM3
# TEST: GM3 Elisa assay
# Assay type: cell-based
# EXPERIMENTAL_CONDITIONS: Table 3 (IC 50 Values); B16-FO cells; read-out: IC50_uM_Mean
TEST_READOUT: IC50

As a guide, the following entries are already answered.
| MOLECULE | RESULT |
| --- | --- |
| O=C(CCCCCCOCC(F)(F)F)N[C@H](CN1CCCC1)[C@H](O)c1ccc2c(c1)OCCO2 [Compound 634] | 100 to 1000 nM |
| CCCCCCOc1ccc([C@@H](O)[C@@H](CN2C3CCC2CC3)NC(=O)CCCCC(=O)c2ccc(OC)cc2)cc1 [Compound 370] | ≤ 100 nM |
| COc1ccc(C(=O)CCCCC(=O)N[C@H](CN2CCCC2)[C@H](O)c2ccc(OCCCCF)cc2)cc1 [Compound 435] | ≤ 100 nM |
| COc1ccc(S(=O)(=O)CCCCCC(=O)N[C@H](CN2CC[C@@H](F)C2)[C@H](O)c2ccc3c(c2)OCCO3)cc1 [Compound 564] | 100 to 1000 nM |
| O=C(CCCCc1nc(C2CC2)no1)N[C@H](CN1CCCC1)[C@H](O)c1ccc2c(c1)OCCO2 [Compound 650] | 100 to 1000 nM |
| O=C(CCCCC(=O)c1ccc(F)cc1)N[C@H](CN1C2CCC1CC2)[C@H](O)c1ccc2c(c1)OCCO2 [Compound 476] | 100 to 1000 nM |
| O=C(N[C@H](CN1CCCC1)[C@H](O)c1ccc2c(c1)OCCO2)C1(C(=O)c2ccc(F)cc2)CC1 [Compound 638] | 3000 to 10000 nM |
| COc1ccc(OCCC(=O)N[C@H](CN2CCCC2)[C@H](O)c2ccc(OCc3ccccc3)cc2)cc1 [Compound 705] | ≤ 100 nM |

COc1ccc(C(=O)CCCCC(=O)N[C@H](CN2CCCC2)[C@H](O)c2ccc(OCCOc3ccccc3)cc2)cc1 [Compound 418] yielded IC50 of ≤ 100 nM

COc1ccc(C(=O)CCCCC(=O)N[C@H](CN2CCCC2)[C@H](O)c2ccc(OC)c(Cl)c2)cc1 [Compound 709] yielded IC50 of ≤ 100 nM

COc1ccc(C(=O)CCCCCC(=O)N[C@@H](Cc2ccccc2)CN2CCCC2)cc1 [Compound 541] yielded IC50 of 3000 to 10000 nM

COc1ccc(C(=O)CCCCC(=O)N[C@H](CN2CCCC2)[C@H](O)c2ccc(OCCC3CCCCC3)cc2)cc1 [Compound 419] yielded IC50 of ≤ 100 nM

COc1ccc(C(=O)CCCCCC(=O)N[C@H](CN2CCCC2)C(O)C2CCCCC2)cc1 (stereo partly drawn) [Compound 471] yielded IC50 of 1000 to 3000 nM

CCCCCCCC(=O)N[C@H](CN1CCCC1)[C@H](O)c1cc(OC)c(OC)c(OC)c1 [Compound 669] yielded IC50 of 3000 to 10000 nM

COc1ccc(OCCC(=O)N[C@H](CN2CCC[C@H]2C)[C@@H](O)c2ccc3c(c2)OCCO3)cc1 [Compound 528] yielded IC50 of 1000 to 3000 nM

src = patent US8304447B2
